# TGT: D(2) dopamine receptor (Homo sapiens) (UniProt P14416)
# Sequence (P14416 whole entry, looked up): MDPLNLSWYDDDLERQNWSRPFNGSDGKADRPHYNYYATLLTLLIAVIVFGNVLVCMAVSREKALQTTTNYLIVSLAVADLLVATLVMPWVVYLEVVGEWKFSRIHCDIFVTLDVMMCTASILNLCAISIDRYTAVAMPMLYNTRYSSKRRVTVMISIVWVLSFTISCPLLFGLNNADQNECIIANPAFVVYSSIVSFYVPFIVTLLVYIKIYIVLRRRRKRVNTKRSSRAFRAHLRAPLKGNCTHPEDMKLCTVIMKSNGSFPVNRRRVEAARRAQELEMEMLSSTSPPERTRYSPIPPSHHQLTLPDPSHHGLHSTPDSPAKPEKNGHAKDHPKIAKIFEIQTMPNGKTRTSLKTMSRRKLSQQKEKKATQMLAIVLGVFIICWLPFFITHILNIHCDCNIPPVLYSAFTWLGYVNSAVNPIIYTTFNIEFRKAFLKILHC
# PROCEDURE_TEXT: HTS Assay for Allosteric Antagonists of the Human D2 Dopamine Receptor: Primary Screen for Antagonists; note: 0% is about no effect
# CONDITION_SUMMARY: HEK293 TREx D2 cells, calcium flux, dopamine EC80; at 10 µM; stronger effect = higher value
The campaign covered roughly 340,000 compounds. About 6,900 (2%) were called active. Many of the other results were omitted from the sample, so actives are more common in it than they were.
METRIC_NAME: inhibition (%)
Quick note: give the figure in %, leave out the unit.

Req: // fetch D(2) dopamine receptor (Homo sapiens) (UniProt P14416) inhibition for CCc1ccccc1NC(=O)CN(C)C(=O)c1cc(C2CC2)nn1-c1ccccc1
Resp: 2.39

Req: // fetch D(2) dopamine receptor (Homo sapiens) (UniProt P14416) inhibition for CC(C)C(NC(=O)c1c(F)cccc1F)C(=O)NCc1ccncc1 (stereo not given)
Resp: -6.22

Req: // fetch D(2) dopamine receptor (Homo sapiens) (UniProt P14416) inhibition for N#CCC(=O)Nc1ccc(C(=O)OCC(=O)Nc2sc3c(c2C#N)CCCC3)cc1
Resp: -5.79

Req: // fetch D(2) dopamine receptor (Homo sapiens) (UniProt P14416) inhibition for COc1cccc(NC(=O)CN(C)C(=O)c2cc(C3CC3)nn2-c2ccccc2)c1
Resp: -0.486

Req: // fetch D(2) dopamine receptor (Homo sapiens) (UniProt P14416) inhibition for CC(C#N)(NC(=O)CN1CCN(S(=O)(=O)c2cc(C(F)(F)F)ccc2Cl)CC1)C1CC1 (stereo not given)
Resp: 12.9

Req: // fetch D(2) dopamine receptor (Homo sapiens) (UniProt P14416) inhibition for Cn1c(N)c(C(=O)COC(=O)COc2ccc(Cl)cc2)c(=O)n(C)c1=O
Resp: 20.2

Req: // fetch D(2) dopamine receptor (Homo sapiens) (UniProt P14416) inhibition for C/C(N)=C(/C#N)C(=O)COC(=O)CNS(=O)(=O)c1ccc(C)cc1
Resp: 12.5

Req: // fetch D(2) dopamine receptor (Homo sapiens) (UniProt P14416) inhibition for CC(=O)c1ccc(S(=O)(=O)NCCC(=O)N2CCN(c3ccccn3)CC2)cc1
Resp: -35

Req: // fetch D(2) dopamine receptor (Homo sapiens) (UniProt P14416) inhibition for Cc1cc(NC(=O)COc2ccc([N+](=O)[O-])cc2)no1
Resp: -5.38

Req: // fetch D(2) dopamine receptor (Homo sapiens) (UniProt P14416) inhibition for COC(=O)CNS(=O)(=O)c1ccc(Cc2ccc(S(=O)(=O)NCC(=O)OC)cc2)cc1
Resp: 41.3

---

# TGT: D(2) dopamine receptor (Homo sapiens) (UniProt P14416)
# PROCEDURE_TEXT: HTS Assay for Allosteric Antagonists of the Human D2 Dopamine Receptor: Primary Screen for Antagonists; note: 0% is about no effect
# CONDITION_SUMMARY: HEK293 TREx D2 cells, calcium flux, dopamine EC80; at 10 µM; stronger effect = higher value
In all, about 340,000 compounds went through this assay and about 6,900 (2%) were called active. Many of the other results were omitted from the sample, so actives are more common in it than they were.
METRIC_NAME: inhibition (%)
Quick note: give the figure in %, leave out the unit.

Req: Data request, read-out inhibition, for CCCCN(C(=O)C1=NN(c2cc(C)ccc2C)C(=O)CC1)c1c(N)n(CCC)c(=O)[nH]c1=O
Resp: -7.61

Req: Data request, read-out inhibition, for O=C(NCc1ccccc1CN1CCCC1)c1cccc(S(=O)(=O)Nc2ccc(F)cc2)c1
Resp: 61.7

Req: Data request, read-out inhibition, for CCN(c1ccccc1)S(=O)(=O)c1cccc(C(=O)NCc2ccccc2CN2CCOCC2)c1
Resp: -43

Req: Data request, read-out inhibition, for O=C(COC(=O)CNC(=O)C1CCCCC1)Nc1cccc(F)c1
Resp: -2.8

Req: Data request, read-out inhibition, for COc1ccccc1NC(=O)COc1ccc(C(=O)OCC(=O)N(C(C)C)C(C)C)cc1OC
Resp: 11.9

Req: Data request, read-out inhibition, for COc1cc(C2C(C#N)=C(C)NC3=C2C(=O)CC(C)(C)C3)ccc1O (stereo not given)
Resp: -7.78

Req: Data request, read-out inhibition, for COc1cc(-c2nnn(CC(=O)NCc3ccccc3)n2)cc(OC)c1OC
Resp: -2.02

Req: Data request, read-out inhibition, for Cc1ccc(-c2nc(CSCC(=O)NC3CCN(Cc4ccccc4)CC3)c(C)o2)cc1
Resp: 47.3

Req: Data request, read-out inhibition, for O=C(Cn1nnc(-c2ccccc2)n1)NC(=O)NC1CCCC1
Resp: -8.79

Req: Data request, read-out inhibition, for Cc1ccsc1C(=O)NC1CCCCC1C (stereo not given)
Resp: -11.1

---

# TGT: D(2) dopamine receptor (Homo sapiens)
# PROCEDURE_TEXT: HTS Assay for Allosteric Antagonists of the Human D2 Dopamine Receptor: Primary Screen for Antagonists; note: 0% is about no effect
# CONDITION_SUMMARY: HEK293 TREx D2 cells, calcium flux, dopamine EC80; at 10 µM
Out of some 340,000 compounds screened, about 6,900 (2%) were called active. Rule as the data show it: active = inhibition above about 30%; inactive = below that, where a call was filed. The sample as a whole holds a higher share of actives than the screen did.
Parameter call: string, one of yes for active, no for inactive

Req: Test call for this molecule, please: Cc1cc(C)n(-c2nnc(C)n2NC(=O)c2cccc(Cl)c2)n1
Resp: yes

Req: Test call for this molecule, please: CCOC(=O)c1ccc(NC(=O)C2CC(=O)N(c3ccc4c(c3)OCCO4)C2)cc1 (stereo unspecified)
Resp: no

Req: Test call for this molecule, please: O=C(c1ccc(Cl)cc1)c1cnc(Nc2ccccc2)s1
Resp: no

Req: Test call for this molecule, please: CCOc1ccc(CCNC(=O)COC(=O)CCS(=O)(=O)c2ccc(C)cc2)cc1OCC
Resp: no

Req: Test call for this molecule, please: Cc1ccc(C)c(CN2CCC(CNC(=O)Nc3ccc(C)c(F)c3)CC2)c1
Resp: no

Req: Test call for this molecule, please: CC(=O)c1cnc(-c2ccccc2)s1
Resp: no

---

# TGT: D(2) dopamine receptor (Homo sapiens)
# PROCEDURE_TEXT: HTS Assay for Allosteric Antagonists of the Human D2 Dopamine Receptor: Primary Screen for Antagonists; note: 0% is about no effect
# CONDITION_SUMMARY: HEK293 TREx D2 cells, calcium flux, dopamine EC80; at 10 µM
# Protocol: NIH Chemical Genomics Center [NCGC] NIH Molecular Libraries Probe Centers Network [MLPCN] […] Freshly passaged cells are plated in 1536 well black, clear bottom plates at a density of 4000 cells/well in 3 ul of complete media containing 1x tetracycline inducer. […] Agonist read: A 10 cycle (1 second/cycle) baseline measurement is taken and then the FDSS online 1536 pintool delivers 23 nl of compound library (as well as dopamine controls) to the plate. […]
Hit rate of the full screen: of about 340,000 compounds, about 6,900 (2%) were called active. Rule as the data show it: active = inhibition above about 30%; inactive = below that, where a call was filed. The full list was thinned out, with actives kept by preference.
Parameter call: string, one of TRUE (active), FALSE (inactive)

Req: Test call for this compound, please: O=C(c1cn(-c2ccccc2)nc1-c1cccnc1)N1CCN(S(=O)(=O)c2ccccc2F)CC1
Resp: FALSE

Req: Test call for this compound, please: O=CN1CCN(C(=O)c2ccc(Br)o2)CC1
Resp: FALSE

Req: Test call for this compound, please: O=C(CN1CCN(C(=O)c2ccco2)CC1)Nc1ccc(Cl)c(C(F)(F)F)c1
Resp: FALSE

Req: Test call for this compound, please: O=C(c1ccco1)N1CCN(Cc2cccc(C(F)(F)F)c2)CC1
Resp: TRUE

Req: Test call for this compound, please: O=C(c1ccco1)N1CCN(C(=O)c2ccc(COc3ccc(F)cc3)o2)CC1
Resp: FALSE

Req: Test call for this compound, please: COc1cccc(OCc2cc(C(=O)N3CCN(C(=O)c4ccco4)CC3)no2)c1
Resp: FALSE

Req: Test call for this compound, please: Cc1ccc(C)c(OCC(=O)N2CCN(C(=O)c3ccco3)CC2)c1
Resp: FALSE

Req: Test call for this compound, please: O=C(Nc1ccccn1)C1CCN(S(=O)(=O)c2ccccc2)CC1
Resp: FALSE

Req: Test call for this compound, please: CCCCn1c(N)c(N(CCC(C)C)C(=O)c2ccc(COc3ccccc3)o2)c(=O)[nH]c1=O
Resp: FALSE

Req: Test call for this compound, please: O=C(CNS(=O)(=O)c1ccccc1)N1CCN(C(=O)c2ccco2)CC1
Resp: FALSE

---

# TGT: D(2) dopamine receptor (Homo sapiens) (UniProt P14416)
# PROCEDURE_TEXT: HTS Assay for Allosteric Antagonists of the Human D2 Dopamine Receptor: Primary Screen for Antagonists; note: 0% is about no effect
# CONDITION_SUMMARY: HEK293 TREx D2 cells, calcium flux, dopamine EC80; at 10 µM
# Procedure: NIH Chemical Genomics Center [NCGC] NIH Molecular Libraries Probe Centers Network [MLPCN] […] Freshly passaged cells are plated in 1536 well black, clear bottom plates at a density of 4000 cells/well in 3 ul of complete media containing 1x tetracycline inducer. […] Agonist read: A 10 cycle (1 second/cycle) baseline measurement is taken and then the FDSS online 1536 pintool delivers 23 nl of compound library (as well as dopamine controls) to the plate. […]
The whole screen tested about 340,000 compounds, of which about 6,900 (2%) were called active. Cut-off read from the data, not from the text of the source: active = inhibition above about 30%; inactive = below that, where a call was filed. This is one part of a sample in which actives are shown more often than they occur.
Parameter call: string, one of active, inactive

Req: Test call for this molecule, please: CC(CCc1ccccc1)NC(=O)c1cnc(Cl)c(Cl)c1 (stereo unspecified)
Resp: active

Req: Test call for this molecule, please: Cc1cccc(OCC(O)CN2CCN(S(=O)(=O)c3ccc(C)cc3C)CC2)c1 (stereo unspecified)
Resp: inactive

Req: Test call for this molecule, please: O=C(Cn1cc(-c2nnnn2-c2ccc(Cl)cc2)c(=O)c2ccccc21)c1ccccc1
Resp: inactive

Req: Test call for this molecule, please: COc1ccc(S(=O)(=O)N2CCN(CC(=O)NCC3(N4CCOCC4)CCCCC3)CC2)cc1
Resp: inactive

Req: Test call for this molecule, please: C=CCc1ccc(OCC(O)CN2CCN(Cc3ccccc3)CC2)c(OC)c1 (stereo unspecified)
Resp: inactive

Req: Test call for this molecule, please: O=C(c1cc(-c2ccco2)nc2ccccc12)N(Cc1nnc(-c2ccc(Cl)cc2)o1)C1CC1
Resp: inactive

Req: Test call for this molecule, please: OC(COc1ccc(F)cc1Cl)CN1CCc2ccccc2C1 (stereo unspecified)
Resp: active

Req: Test call for this molecule, please: O=C(C[n+]1ccc2c(c1)nnn2-c1ccccc1)c1ccc(Cl)cc1
Resp: active

Req: Test call for this molecule, please: CCc1ccc(S(=O)(=O)Nc2cc3c(cc2N2CCCCC2)n(C)c(=O)c(=O)n3C)cc1
Resp: inactive

Req: Test call for this molecule, please: Cc1ccc(OCC(O)CN2CCN(CC(O)COc3ccc(C)cc3Cl)CC2)c(Cl)c1 (stereo unspecified)
Resp: active

Req: Test call for this molecule, please: Cc1cc(C)cc(NC(=O)COC(=O)c2cc(C)oc2C)c1
Resp: inactive

Req: Test call for this molecule, please: CCC(C(=O)OCC(=O)Nc1c(Cl)cc(Cl)cc1Cl)c1ccccc1 (stereo unspecified)
Resp: inactive

Req: Test call for this molecule, please: NC(=O)c1ccc(NC(=O)COC(=O)c2ccc([N+](=O)[O-])cc2)cc1
Resp: inactive

Req: Test call for this molecule, please: Cc1c(CN2CCC(C)CC2)c(=O)n(-c2ccccc2)n1C
Resp: inactive

Req: Test call for this molecule, please: O=C(NCCCN1CCN(c2ccc(F)cc2)CC1)Nc1ccc([N+](=O)[O-])cc1
Resp: active

Req: Test call for this molecule, please: Cn1c(=O)c(=O)n(C)c2cc(S(=O)(=O)NCCN3CCN(c4ccccc4F)CC3)ccc21
Resp: active

Req: Test call for this molecule, please: O=C(CSc1cccc[n+]1[O-])c1ccc(Cl)cc1
Resp: inactive

Req: Test call for this molecule, please: CN(c1ccccc1)S(=O)(=O)c1cccc(NC(=O)Cc2ccc(Cl)cc2)c1
Resp: inactive

Req: Test call for this molecule, please: Cc1ccc(S(=O)(=O)NCCN2CCOCC2)cc1C
Resp: inactive

Req: Test call for this molecule, please: COc1ccc(CCNC(=O)c2cnc(Cl)c(Cl)c2)cc1
Resp: inactive

Req: Test call for this molecule, please: Cc1c(CN2CCCC(C(=O)c3cccc(Cl)c3)C2)c(=O)n(-c2ccccc2)n1C (stereo unspecified)
Resp: inactive

Recorded values, source PubChem BioAssay AID485344.
